Target: N2P2 (NHERF2 PDZ domain 2) (Homo sapiens)
Sequence (Q15599 150-230 limits assumed): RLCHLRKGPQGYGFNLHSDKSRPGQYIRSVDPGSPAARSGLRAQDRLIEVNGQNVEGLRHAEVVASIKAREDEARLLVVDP
Assay: Fluorescence polarization
Format: binding
Conditions: SD
No end group written: not given here.
observation.type: pKi
Numbers only, as −log10 of the molar value.

Ask: State its pKi for this sequence: SRWPTSII [iCAL36_8]
Result: 3.36

====

Biological target: N2P1 (NHERF2 PDZ domain 1) (Homo sapiens, UniProt Q15599)
Sequence (Q15599 11-90 limits assumed): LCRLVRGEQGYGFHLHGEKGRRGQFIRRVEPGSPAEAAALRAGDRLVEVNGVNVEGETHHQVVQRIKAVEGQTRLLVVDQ
Test: Fluorescence polarization
Format: binding
Conditions: SD
No end group written: not given here.
observation.type: Ki (µM)
One number for each entry, in µM.

Ask: State its Ki for this sequence: SRWPTSII [iCAL36_8]
Result: 516
